Recorded melting point by entry

O=C(CCc1oc(-n2cnc3ccccc32)nc1-c1ccc(Cl)cc1)N1CCSC1 :: 125 to 126 °C

Problem: Any idea what melting point was measured for COc1ccc(CCCOS(C)(=O)=O)cc1OCc1coc(/C=C/c2ccccc2)n1 ?
Solution: 112 to 113 °C

Problem: Try the compound CC1Cc2c(c(Cl)cc(F)c2N2C(=O)C3=C(CCCC3)C2=O)O1 (stereo not given)
Solution: 169 to 171 °C

Problem: Can you handle CC1(O)CC(=O)OC(C=Cc2ccc(OCc3ccccc3)cc2)C1 (stereo not given) next?
Solution: 155 to 156 °C

Problem: Now consider NC(=S)c1sc(-c2ccccc2)nc1N and answer again.
Solution: 164 to 167 °C

Problem: Moving on to O=c1[nH]c2ccccc2n1CCCN1CCC(O)(c2ccc(F)cc2)CC1
Solution: 135 °C

Problem: // same read-out, input: O=C1CCCC(CN2CCN(c3ccccn3)CC2)C1 (stereo not given)
Solution: 86 to 90 °C

Problem: For c1ccc(N(c2ccccc2)c2ccc(-c3ccc(-c4ccnc(C5Cc6ccccc6N5)n4)cc3)cc2)cc1 (stereo not given) then?
Solution: 247 to 248 °C

Problem: Repeat with [N-]=[N+]=NCCCC(=O)N1CCc2c(OC(CO)CO)ccc([N+](=O)[O-])c21
Solution: 78 to 79 °C

Problem: Likewise for NC(=S)c1cn(COCCO)c2ncnc(N)c12 ?
Solution: 186 to 188 °C

Problem: // same read-out, input: CS(=O)c1ccc(-n2cnc3ccc(-c4nnc(CCc5cccc(C#N)c5)o4)cc32)cc1 (stereo not given)
Solution: 194 to 195 °C

Problem: Consider next the compound CCOP(=O)(CC(=O)NNc1nc2ccc(C(F)(F)F)cc2n(OCc2ccccc2)c1=O)OCC in the same way.
Solution: 163 to 166 °C

Problem: Please give the result for C(=CCN(CC1CCCCC1)CC1CCCCC1)CN(CC1CCCCC1)CC1CCCCC1 too.
Solution: 72 to 73 °C

Problem: Request: Cc1cc([N+](=O)[O-])ccc1Oc1cncc(Cl)c1
Solution: 80 to 82 °C

Problem: How about this compound: O=C1CCCC(c2ccc(Cl)cc2)N1c1cccnc1 (stereo not given)
Solution: 107 to 108 °C

Problem: And what about the compound CCCc1ccc(-c2nc(C)c(C(C)=NNC(=N)N)s2)cc1 ?
Solution: 256 to 257 °C

====

Readout kind: melting point

Problem: Would you kindly share the measured melting point for COc1cc(N)c(Cl)cc1C(=O)NCC1CCN(CCOCc2ccccc2)CC1 ?
Solution: 123 to 125 °C

Problem: Then this molecule: c1cc(OCC2CO2)c2nsnc2c1 (stereo not given)
Solution: 65 to 67 °C

Problem: Queued: CCOC(OCC)c1ncn(C(c2ccccc2)(c2ccccc2)c2ccccc2)n1
Solution: 120 to 124 °C

Problem: Record: C[C@H]1[C@H](O)[C@H](O)C(S(=O)(=O)c2ccccc2)=C[C@H](C)[C@H]1O[Si](C)(C)C(C)(C)C
Solution: 117 to 119 °C

Problem: Likewise for COC(=O)[C@H](CN1CCC(=C2c3ccccc3C=Cc3ccccc32)CC1)NC(=O)OCc1ccccc1 ?
Solution: 116 to 119 °C

Problem: Entry O=C(Cc1c(F)c(F)nc(F)c1Cl)OCc1ccccc1 please
Solution: 87 to 92 °C

Problem: Follow-up item: CCCCCCCCCCCCCCCCCCOc1cc2ccccc2c(N)c1O
Solution: 97 to 99 °C

Problem: Another molecule to look at: CC1(C)C(=O)Oc2ccc3cc(C(N)=O)c(Cn4cncn4)cc3c21
Solution: 231 to 232 °C

Problem: How about Clc1ccc(O[C@@H]2CCNC[C@H]2c2ccccc2)cc1 (relative stereo) ?
Solution: 102 to 103 °C

Problem: Another molecule to check: CC(Cc1ccc(OCCCO)cc1)NCC(O)c1cccc(C(F)(F)F)c1 (stereo not given)
Solution: 97 to 103 °C

====

Measured melting point of individual entries

Problem: Using the record for CCCCc1c(OCOC(=O)C(C)(C)C)n(-c2ccccc2)n(-c2ccccc2)c1=O , report its melting point.
Solution: 83 to 85 °C

Problem: Further, for O=c1[nH]c2ncc(-c3ccccn3)nc2n1CC1CCCCC1 ?
Solution: 194 to 196 °C

Problem: And the next one, O=C(Cn1ccnc1)c1cc(Br)cc2ccccc12 ?
Solution: 242 to 244 °C

Problem: Record: O=C(CCC#Cc1cccc(CF)n1)Nc1ccc(F)cc1
Solution: 110 °C

====

Readout kind: melting point

Problem: # lookup: melting point of CCNc1nc(Cc2cc(OC)c(OC)c(OC)c2)nc2sc(C#N)c(C)c12
Solution: 164 to 165 °C

Problem: Another molecule: CCSC(=O)CCS(=O)CC (stereo not given)
Solution: 35.5 to 36 °C

Problem: Record: CC(C)c1cc(C(=O)Nc2ccc(C(=O)O)c(Cl)c2)oc1C(C)C
Solution: 152 to 153 °C

Problem: Field entry: COc1cc2c(cc1C)CCN=C2CCc1ccc(Cl)cc1
Solution: 122 to 124 °C

Problem: Let us now turn to CC1(C)Oc2ccc(C#N)cc2[C@@H](NC(=O)Nc2cccc(-c3nnn[nH]3)c2)[C@@H]1O
Solution: 204 to 208 °C

====

Readout kind: melting point

C=CCn1c(-c2ccccc2[N+](=O)[O-])nc2ccccc21 :: 81.5 to 83 °C

Problem: Reported melting point for CC1(C)OC(C=Cc2ccc(Cl)c(Cl)c2)=CC1=O : what is it?
Solution: 100 to 102 °C

Problem: # iterate: Clc1ccc(-c2cc(C3CC3)n3ncc(I)c3n2)cc1
Solution: 189 to 190 °C

Problem: Please give the result for CC(C)CC(COc1ccc(-c2ccc(C#N)cc2)cc1)N(O)C=O (configuration not stated) too.
Solution: 112 to 113 °C

Problem: Can you check CCOC(=O)C1CCCN2CCC3c4cc(Cl)ccc4N(N)C3C12 (configuration not stated) next?
Solution: 172 to 175 °C

Problem: # iterate: Nc1c2c(nc3[nH]c4ccccc4c13)CCCC2=O
Solution: > 300 °C

====

Readout kind: melting point

CCOC(=O)c1cc(Cl)c(S(C)(=O)=O)c(-c2cc(C)no2)c1C :: 126 to 129 °C

Problem: Reported melting point for CC(=O)Nc1ccc(S(=O)(=O)c2ccc(Br)cc2)cc1 : what is it?
Solution: 195 to 199 °C

Problem: Cc1ccc(C)n1-c1ccc2c(c1)ncn2-c1cccc(-n2ccnc2)c1 , same question.
Solution: 141 to 142 °C

Problem: How about this compound: CC1(Cn2nc(-c3ccccc3)oc2=O)Cn2cc([N+](=O)[O-])nc2O1 (stereo not given)
Solution: 225 to 227 °C

Problem: Would you kindly repeat that for CCn1ncc2nc(C(=O)Nc3nccs3)c(-c3ccccc3)nc21 ?
Solution: 194 to 196 °C

====

This section presents compounds with their documented melting point values.

CC(C)c1c(C=O)c(-c2ccc(F)cc2)n2c1CCCC2 :: 100 to 101 °C
O=C(Oc1ccccc1OC(=O)c1ccccc1)c1ccccc1 :: 75 to 77 °C
Cc1[nH]n(Cc2ccc([N+](=O)[O-])cc2)c2nc(-c3ccncc3)nc(=O)c1-2 :: 275 to 281 °C
CCN(CC)CCCCNc1ncc2c(n1)N(C1CC1)C(=O)N(c1c(F)c(OC)cc(OC)c1F)C2 :: 139 to 141 °C
c1ccc2c(c1)CC(CN1CCC(c3c[nH]c4cc5c(cc34)OCO5)CC1)C2 :: 187 to 188 °C
Clc1ccc(N=Cc2ccc(Cl)c3cc(Cl)cnc23)c(Cl)c1 :: 156 °C

Problem: I'd like to know its melting point. The compound in question is O=S1(=O)NCN(C2CC2)c2ccc(C(F)(F)F)cc21
Solution: 155 to 157 °C

Problem: Same for CCN1CCNC(=O)c2ccc(Nc3ncc(Cl)c(Nc4ccccc4C(=O)NC)n3)cc21
Solution: 168 to 171 °C

Problem: Another compound to look at: Cc1c(C)c2c(c(Br)c1N)C(c1ccc(C(C)C)cc1)CO2 (stereo unspecified)
Solution: 191 to 193 °C

Problem: Entry CN(C(=O)CCCOc1ccc2c(c1)CN(CC(=O)O)C(N)=N2)C1CCCCC1 please
Solution: 125 to 128 °C

Problem: Could you do the same for CC1(C)CCC(OC2=C(c3ccc(S(C)(=O)=O)cc3)C(C)(C)OC2=O)C1 (stereo unspecified) , please?
Solution: 99 to 100 °C

Problem: How about this compound: CC(=O)c1c(-c2ccc(F)cc2)nn(CC2CC2)c(=O)c1Nc1cccc2cccnc12
Solution: 150 to 151 °C

Problem: Proceed to CCOC(=O)CN1CC(=O)N(C)c2ccc([N+](=O)[O-])cc2C1=O
Solution: 129 to 130 °C

Problem: Entry to check: CCCCCCCCCCSCCCCCCCCCCNC(=O)OCCN1CCOCC1
Solution: 91 °C

Problem: What do we get for O=C(NCc1ccc(Cl)cc1)c1cn(Cc2cccnc2)c2sc(CN3CCOCC3)cc2c1=O ?
Solution: 214 to 215 °C

Problem: What about this compound? Nc1ncc(-c2ccc(=O)[nH]n2)c(-c2ccccc2)n1
Solution: > 280 °C

Problem: Moving on to Cc1nc(N)c2nc(CO)n(NC3CCCC3)c2c1C
Solution: 254 to 256 °C

Problem: Can you check CC1CC(c2cc3ccc(F)cc3s2)CCN1 (stereo unspecified) next?
Solution: 34 to 37 °C
